systemName: T1, human GIP receptor (human) (UniProt P48546)
T1 sequence (looked up): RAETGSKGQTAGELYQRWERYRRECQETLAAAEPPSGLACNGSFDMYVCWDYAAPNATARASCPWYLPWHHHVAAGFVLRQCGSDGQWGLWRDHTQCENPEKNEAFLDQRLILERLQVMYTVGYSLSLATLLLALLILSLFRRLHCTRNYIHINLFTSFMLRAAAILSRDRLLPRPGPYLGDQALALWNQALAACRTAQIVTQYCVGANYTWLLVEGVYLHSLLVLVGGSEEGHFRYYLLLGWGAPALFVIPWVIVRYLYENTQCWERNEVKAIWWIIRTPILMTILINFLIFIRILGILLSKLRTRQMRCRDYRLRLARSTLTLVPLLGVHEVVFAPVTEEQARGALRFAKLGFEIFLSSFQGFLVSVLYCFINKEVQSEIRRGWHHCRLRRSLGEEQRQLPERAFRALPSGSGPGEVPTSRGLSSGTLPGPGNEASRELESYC
assayComment: cell-based or functional assay
Here the recorded cAMP EC50 is given for each entry.
Your answer should be a plain number; it is taken to be in nM.

Field: example entries. Status: answers known.
>>> endpointresult("IP174 (Fc fusion) HGEGTFTSDVSSYLEEEAAKEFIAWLVAGGAAAGGSGSTASSGSGSATGGGGAATHTCPPCPAPEF")
460
>>> endpointresult("IP333 (Fc fusion) YSEGTFISDYSIALAAAAQQDFVNWLLKGGGGGGGSGGGGSGGGGSGGGGSGGGGSGGGGSA")
0.0086

### Prompt What value of cAMP EC50 has been reported for the following binder? IP364 (Fc fusion) YSEGTFTSDFSKLLERQAIDEFIAWLLKGGAAAGGSGSTASSGSGSATGGGGAATHTCPPC
### Response 0.0085

### Prompt For IP367 (Fc fusion) YSEGTFTSDYRILKERQAIDEFIAWLLKGGAAAGGSGSTASSGSGSATGGGGAATHTCPPC , what is its reported cAMP EC50?
### Response 0.057

### Prompt # get_value(readout='cAMP EC50', item= IP305 (Fc fusion) YSEGTFISDYSIALAAAAVRDFVNWLLAGGGGGGGSGGGGSGGGGSGGGGSATHTCPPC )
### Response 0.26

### Prompt Looking for the measured cAMP EC50 of IP223 (Fc fusion) YSEGTFTSDVSSYMEEEAIDEFIAWLLKGGAAAGGSGSTASSGSGSATGGGGAATHTCPPCPAPEF , can you help?
### Response 2.5

### Prompt Look up cAMP EC50 for this binder: IP247 (Fc fusion) YSEGTFTSDYSKLLEKIHQQLFIEWLVKGPAAAGGSGSTASSGSGSATGGGGAATHTCPPCPAPEF
### Response 0.019
